src = the nanobody polyreactivity screen of Harvey et al. (2022)

Experiment: yeast display, Sf9 membrane polyspecificity reagent, FACS + sequencing; frameworks hold sequencing errors
MEASUREMENT LABEL: polyreactivity (PSR sort gate)

Answered examples (4):
QVQLVESGGGLVPAGGSLRLSCAASGSTFPVYAMGWYRPAPGTERELVAAINSGVSTNYADSVKGRFTMSRDNANTTVYLQRNSLKPEDTAVYYCNTSYVGYPDLGINYEFDYWGQGTQVTVSS low polyreactivity
QVQLVESGGGLFQAGGSLRLSCAPSGSIIIRNAMGWYRQAPGKEREWVAVISSSVGRTYYADSVKGRFTISRDTAKNTVYVQMNSLKPEVTAVYYCAARWYSGYGRFDYWGQVTQVTVSS high polyreactivity
QVQLVESGGGLVQAGGSLRLSCAASGIIFYDYAMGWYRQAPGKERELVAAITSGGSTNYADSVKGRFTISRDNAKNTVYLQMNSLKPEDTAVYYCAATYWSWIPLRFYRGQGTQVTVSS low polyreactivity
QVKLVESGAGLVQAGGSLRLSCAASGIIFAQYTMGWYRQAPGKERELVAAINRNGGSTYYADSVKGRFTISRDNAKNTVYLQMNSLKPEDTAVYYCNAEALGFRYDYWGQGTQVTVSS low polyreactivity

Note to self: polyreactivity (PSR sort gate) recorded for QVQLVESGGGLVQAGGSLRLSCAASGSTFHYYAMGWYRQAPGKERELVAAISYRGSTYYADSVKGRFTISRDNAKNTVYLQMNSLKPEDTAVYYCAVVSSRGRRIYGYWGQGTQVTVSS was high polyreactivity
